Biological target: T1, IL-2 receptor βγ complex (human, UniProt P14784 27-551; P31785 23-369)
T1 sequence (looked up) 1: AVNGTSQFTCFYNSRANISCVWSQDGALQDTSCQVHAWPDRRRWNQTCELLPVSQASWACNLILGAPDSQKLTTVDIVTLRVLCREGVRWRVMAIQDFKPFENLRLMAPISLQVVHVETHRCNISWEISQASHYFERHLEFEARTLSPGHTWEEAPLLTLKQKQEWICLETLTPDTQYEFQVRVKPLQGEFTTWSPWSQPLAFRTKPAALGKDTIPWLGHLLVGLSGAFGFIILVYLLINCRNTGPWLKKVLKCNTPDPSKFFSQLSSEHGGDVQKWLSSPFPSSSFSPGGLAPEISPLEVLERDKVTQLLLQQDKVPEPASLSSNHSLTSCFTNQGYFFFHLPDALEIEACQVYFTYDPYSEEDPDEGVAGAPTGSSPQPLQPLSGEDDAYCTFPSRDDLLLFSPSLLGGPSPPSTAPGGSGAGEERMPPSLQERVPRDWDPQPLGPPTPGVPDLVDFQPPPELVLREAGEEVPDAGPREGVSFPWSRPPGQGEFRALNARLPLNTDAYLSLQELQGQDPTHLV
T1 sequence (looked up) 2: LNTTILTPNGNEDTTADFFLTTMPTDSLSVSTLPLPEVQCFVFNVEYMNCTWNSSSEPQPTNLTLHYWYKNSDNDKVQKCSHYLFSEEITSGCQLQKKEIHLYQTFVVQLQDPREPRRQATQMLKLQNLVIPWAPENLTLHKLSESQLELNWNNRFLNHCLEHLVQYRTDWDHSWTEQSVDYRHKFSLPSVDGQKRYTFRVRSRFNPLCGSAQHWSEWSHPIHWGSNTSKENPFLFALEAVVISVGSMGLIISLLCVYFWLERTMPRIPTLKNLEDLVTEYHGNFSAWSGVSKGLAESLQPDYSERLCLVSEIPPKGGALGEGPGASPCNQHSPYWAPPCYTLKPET
Experiment: cell-based or functional assay
Bridges are numbered along the chain shown (N, C = ends). Primed or numbered codes have the meaning given here. [ ]: non-standard residue; d: D form. 8x polyethylene glycol‑amino = O-(8x polyethylene glycol-amino)-tyrosine, SITE 45; 9x polyethylene glycol‑azido = O-(9x polyethylene glycol-azido)-tyrosine, SITE 42; Ygp″ = O-(8x polyethylene glycol-amino)-tyrosine; Yn3″ = O-(9x polyethylene glycol-azido)-tyrosine; hSer = N[C@@H](CCO)C(=O)O; Nle = CCCC[C@H](N)C(=O)O
REPORTED_METRIC: Average EC50, pSTAT5 Assay in NK cells (nM)
Unit nM implied. Number only.

{"BINDER": "CMP-316, uPa cleaved molecule (ligand, also: uPa cleavage product, not given here as a sequence, Lys23 side-chain attachment remnant unknown) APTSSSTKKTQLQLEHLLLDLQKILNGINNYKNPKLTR[Nle]L[hSer]Y(9x polyethylene glycol‑azido)KFY(8x polyethylene glycol‑amino)[Nle]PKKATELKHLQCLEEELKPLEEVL[hSer]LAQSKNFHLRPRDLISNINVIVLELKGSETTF[hSer]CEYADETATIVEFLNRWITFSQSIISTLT", "Average EC50, pSTAT5 Assay in NK cells [nM]": 0.533}

Then this binder:
Sample CMP-327 (ligand, bridge 9-23; not fully specified (bridges); ends not checked; also: further groups not given here) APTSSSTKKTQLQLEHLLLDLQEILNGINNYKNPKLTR[Nle]L[hSer][Yn3″]KF[Ygp″][Nle]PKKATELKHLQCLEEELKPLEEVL[hSer]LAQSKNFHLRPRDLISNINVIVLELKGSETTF[hSer]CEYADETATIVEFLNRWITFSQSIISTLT — what was its Average EC50, pSTAT5 Assay in NK cells?
16.6
